These entries and their values trace back to BindingDB's records for doi:10.1038/nchembio.2334.

Assay target: Mas-related G-protein coupled receptor member X2 (Homo sapiens, UniProt Q96LB1)
Sequence (Q96LB1 whole entry): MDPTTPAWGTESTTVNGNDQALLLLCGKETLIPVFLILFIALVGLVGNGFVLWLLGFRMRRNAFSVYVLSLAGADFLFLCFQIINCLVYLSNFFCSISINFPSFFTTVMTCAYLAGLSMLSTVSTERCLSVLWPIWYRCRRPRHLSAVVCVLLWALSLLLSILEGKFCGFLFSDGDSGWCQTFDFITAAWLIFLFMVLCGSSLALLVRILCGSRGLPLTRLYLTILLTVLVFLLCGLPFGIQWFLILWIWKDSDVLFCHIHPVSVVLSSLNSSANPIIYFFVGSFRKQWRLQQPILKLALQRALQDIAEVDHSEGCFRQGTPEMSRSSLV
Assay protocol: PRESTO-Tango Assay
Assay setup: pH 7.4; 30 °C
Reported property: EC50 (µM)
Answer in µM, number only, no unit symbol.

stdin: Lab note: need EC50 for C[C@@H]1C2Cc3ccc(O)cc3[C@]1(C)CCN2 on Mas-related G-protein coupled receptor member X2 (Homo sapiens, UniProt Q96LB1), anyone have it?
stdout: 50

stdin: Lab note: need EC50 for COc1ccc2c3c1O[C@H]1[C@@H](OC(C)=O)C=C[C@H]4[C@@H](C2)N(C)CC[C@@]341 [6-Acetylcodeine] on Mas-related G-protein coupled receptor member X2 (Homo sapiens, UniProt Q96LB1), anyone have it?
stdout: 19

stdin: Lab note: need EC50 for C[C@@H]1[C@@H]2Cc3ccc(O)cc3[C@@]1(C)CCN2C [(+)-Metazocine] on Mas-related G-protein coupled receptor member X2 (Homo sapiens, UniProt Q96LB1), anyone have it?
stdout: 7.2

stdin: Lab note: need EC50 for CC(C)C[C@H](NC(=O)[C@H](Cc1ccccc1)NC(=O)CNC(=O)CNC(=O)[C@@H](N)Cc1ccc(O)cc1)C(=O)N[C@@H](CCCNC(=N)N)C(=O)N[C@@H](CCCNC(=N)N)C(=O)N[C@@H](CCC(N)=O)C(=O)N[C@@H](Cc1ccccc1)C(=O)N[C@@H](CCCCN)C(=O)N[C@H](C(=O)N[C@H](C(=O)N[C@H](C(=O)O)[C@H](C)O)C(C)C)C(C)C [Dynorphin B (1-13)] on Mas-related G-protein coupled receptor member X2 (Homo sapiens, UniProt Q96LB1), anyone have it?
stdout: 33

stdin: Lab note: need EC50 for CC[C@H](C)[C@H](NC(=O)[C@H](CCCNC(=N)N)NC(=O)[C@H](CCCNC(=N)N)NC(=O)[C@H](CC(C)C)NC(=O)[C@H](Cc1ccccc1)NC(=O)CNC(=O)CNC(=O)[C@@H](N)Cc1ccc(O)cc1)C(=O)N[C@@H](CCCNC(=N)N)C(=O)N1CCC[C@H]1C(=O)N[C@@H](CCCCN)C(=O)N[C@@H](CC(C)C)C(=O)N[C@@H](CCCCN)C(=O)N[C@@H](Cc1c[nH]c2ccccc12)C(=O)N[C@@H](CC(=O)O)C(=O)N[C@@H](CC(N)=O)C(=O)N[C@@H](CCC(N)=O)C(=O)O [Dynorphin A (1-17)] on Mas-related G-protein coupled receptor member X2 (Homo sapiens, UniProt Q96LB1), anyone have it?
stdout: 21

stdin: Lab note: need EC50 for COC1=CC=C2[C@H]3Cc4ccc(OC)c5c4[C@@]2(CCN3C)[C@H]1O5 [Thebaine] on Mas-related G-protein coupled receptor member X2 (Homo sapiens, UniProt Q96LB1), anyone have it?
stdout: 11

stdin: Lab note: need EC50 for CCC(=O)O[C@](Cc1ccccc1)(c1ccccc1)[C@H](C)CN(C)C [PROPOXYPHENE] on Mas-related G-protein coupled receptor member X2 (Homo sapiens, UniProt Q96LB1), anyone have it?
stdout: 15

stdin: Lab note: need EC50 for COc1ccc2c(c1)[C@@]13CCCC[C@@H]1[C@@H](C2)N(C)CC3 [Dextromethorphan] on Mas-related G-protein coupled receptor member X2 (Homo sapiens, UniProt Q96LB1), anyone have it?
stdout: 3.2
